# Test system: HT-29
# methodSummary: NCI tumour cell line growth inhibition, 48 h
Active and inactive are the calls of the source. Cut-off read from the data, not from the text of the source: active = GI50 up to about 1.1 µM and inactive = higher.
Classes used: t = active, f = inactive

compound	assignedClass
O=C(Oc1cccnc1)c1cc2cc(CCl)ccc2oc1=O	f
O=C1c2cc3c(cc2CC12Cc1cc4c(cc1C2=O)CCCC4)CCCC3	f
Fc1ccc(OCc2nc3cc(C(F)(F)F)ccc3nc2-c2ccccc2)cc1	f
CCOC(=O)/C(C#N)=C(O)/C(=C/c1ccccc1Cl)NC(=O)c1ccccc1	f
COc1ccc(C(=O)C(c2ccc(OC)cc2)C2(O)C(=O)Nc3ccccc32)cc1 (stereo unspecified)	f
Cc1cc2c3c(c1)CCCN3CCC2	f
COc1ccccc1/C=C/c1ccnc2ccccc12	f
COc1cc(C2CC(C)(O)Oc3cc4c(cc32)OCO4)cc(OC)c1OC (stereo unspecified)	t
Cc1ccc([N+](=O)[O-])cc1NC1=NCCO1	f
Cc1ccc2nc(-c3ccccc3)c(N=O)n2c1	f
O=C(Cc1nc2ccccc2s1)C(=O)Nc1ccccc1C(F)(F)F	f

Values from ChEMBL document CHEMBL1201862
